- System: H9c2 cardiomyocytes, 2-deoxyglucose stress, ATP luminescence, 2 h
- TEST_SUMMARY: H9c2 cell survival under 2-deoxyglucose stress – uHTS hits, dose response (AID 588780)
Active and inactive are the calls of the source.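 Rule for the calls: active = compounds whose fitted half-maximal concentration in the cell-protection dose series is at or below a set limit; inactive = the rest.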
Respond with a class label; see 1 (active), 0 (inactive)

Below, 8 molecules whose answers are already recorded.
* COc1ccc(-c2cc(NC=O)c3ncc(-c4ccc(C(C)=O)cc4)n3c2)cn1 | 0
* O=C1NC(Cc2ccc(O)cc2)c2nc3ccc(F)cc3c(=O)n2-c2cc3ccccc3cc21 (configuration not stated) | 1
* O=C1NC(c2cccs2)Nc2ccccc21 (configuration not stated) | 0
* N/C(=N\NS(=O)(=O)c1ccccc1)c1ccccn1 | 0
* NNC(=O)c1cc2ccccc2cc1O | 0
* CN(C)Cc1ccc(-c2nc3cccc4c3n2CCNC4=O)cc1 | 0
* O=C(COC(=O)c1c2c(nc3ccccc13)/C(=C/c1cccc([N+](=O)[O-])c1)CCC2)NC1CCS(=O)(=O)C1 (configuration not stated) | 1
* CCOC(=O)c1c(C)[nH]c(C(=O)COc2ccc3ccc(=O)oc3c2)c1C | 0

Answer briefly: the call reported for "Clc1ccccc1-c1nc(N/N=C/c2cccnc2)c2ccccc2n1" in this assay.
1

Try the molecule "Cc1nn(-c2ccccc2)c(Cl)c1C(=O)NNC(=O)c1ccccc1O"
0

Try the molecule "CSc1nc2sc3c(c2c(=O)[nH]1)CCC3"
0

Try the molecule "COc1cccc(Nc2nc3ccccc3n3nnnc23)c1"
1

Try the molecule "O=C(c1ccccc1)c1ccc2nc(N3CCN(C(=O)c4ccco4)CC3)c3nncn3c2c1"
1

Try the molecule "Cc1ccc(S(=O)(=O)N2CCN(C(=O)c3cc(=O)[nH]c4ccccc34)CC2)c(C)c1"
1

Try the molecule "COCCn1c(=NC(=O)c2nc3ccccc3s2)sc2cc(S(C)(=O)=O)ccc21"
1

Try the molecule "O=C(Nc1cccc(Cl)c1)c1nc[nH]c1C(=O)NCCCCNC(=O)c1[nH]cnc1C(=O)Nc1cccc(Cl)c1"
0

Try the molecule "CCC(=O)Nc1cccc(-c2nnc(-c3cccc(NC(=O)CC)c3)o2)c1"
0

Try the molecule "Cc1ccc2nc(SCc3nc4ccccc4c(=O)[nH]3)[nH]c2c1"
0

Try the molecule "O=C(COc1cccc2c1CCNC2=O)Nc1ccc(F)cc1"
0

Try the molecule "COc1ccccc1NS(=O)(=O)c1ccc2oc(SCC(=O)N3CCNC3=O)nc2c1"
0

Try the molecule COC(=O)c1ccc(C(NC(=O)OCc2ccccc2)/C(C)=C/[C@@H](C)C(=O)NCc2ccc(OC)c(OC)c2)cc1 (some centres not stated)
1

Try the molecule "CCOc1ccc(CC(=O)Nc2c(C(N)=O)oc3ccc(Br)cc23)cc1OCC"
0

Try the molecule "COc1ccc(-c2cc(NC=O)c3ncc(-c4ccccc4)n3c2)cc1OC"
0

Try the molecule "CCOC(=O)c1cc2c(=O)n3ccccc3nc2n(Cc2ccco2)c1=NC(=O)c1cccnc1"
1

Try the molecule COc1ccc(C2CCCCCN2C(=O)C2CCN(S(=O)(=O)c3cccc(C(C)=O)c3)CC2)cc1 (configuration not stated)
0

Try the molecule "COc1ccc(-c2cc(=O)c3ccccc3[nH]2)cc1"
0

Try the molecule COc1ccc(/C=N/NC(=O)c2cc(OC)c(OC)c(OC)c2)cc1CN1CCc2cc(OC)c(OC)cc2C1C (configuration not stated)
0
